Listed next: entries and their corresponding pIC50.
Molecular target: PKCα (Homo sapiens)
Construct: His6; purchased Millipore; host or cells: baculovirus in Sf21 cells
Assay: In vitro enzyme assay (time-resolved fluorescence kinase assay), PKCα, 100 μM ATP
Format: biochemical
Details: 100 μM ATP; read-out: PKCα enzyme IC50
pIC50: −log10 of the molar value.

Answered examples (3):
C[C@@H]1CNCCN1c1cc2c(cc1-c1ccccc1F)OCC1=NNC(=O)[C@@H](C)N12	6.00 to 6.60
C[C@@H]1C(=O)NN=C2COc3cc([C@H](C)C(F)(F)F)c(NC4CNC4)cc3N21	5.00 to 6.00
C[C@@H]1C(=O)NN=C2COc3cc(C(F)(F)F)c(NC4(C)CNC4)cc3N21 (single isomer, unassigned)	5.00 to 6.00

Need pIC50, item Cc1ccc(-c2cc3c(cc2N(C)C2(C)CN(C)C2)N2C(=NNC(=O)C2C)CO3)cc1 (stereo not drawn)
6.00 to 6.60

Need pIC50, item CC(C)c1cc2c(cc1C1CCNCC1)N1C(=NNC(=O)C1C)CO2 (stereo not drawn)
5.00 to 6.00

Find the recorded pIC50 belonging to "C[C@@H]1C(=O)NN=C2COc3cc(-c4ccccc4F)c(N4CCN(C)[C@@H](C)C4)cc3N21" and report it.
6.00 to 6.60
